Hey, just so you know, these numbers are from PubChem BioAssay.

Experiment: growth inhibitors of H69AR lung tumor, primary screen, human, duplicate replicates (AID 580);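 also: 100% = mean luminescence of untreated wells and 0% = no signal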
Settings: H69AR lung tumor cells viability, ATP luminescence, 72 h; at 10 µM; active compounds read low
Each item that follows carries a reported viability.
property.measured: viability (%)

compound: COc1ccc2c(c1)OC(O)(C(F)F)CC2=O (configuration not stated)
measurement.units: %
data.value: 93.5
--
compound: COc1ccccc1OCC(=O)NCC1CCCCC1
measurement.units: %
data.value: 109
--
compound: CN1CCN(S(=O)(=O)c2ccc(Sc3nnc(-c4cccs4)n3-c3ccccc3)nc2)CC1
measurement.units: %
data.value: 85.7
--
compound: CS(=O)(=O)c1ccc2nc(NC(=O)c3cccs3)sc2c1
measurement.units: %
data.value: 45
--
compound: O=C1CCCCCN1CSc1nc2ccccc2s1
measurement.units: %
data.value: 88
--
compound: CC(=O)Nc1ccc(OCC(O)Cn2nc(C)nc2C)cc1 (configuration not stated)
measurement.units: %
data.value: 91
--
compound: O=C(C1CCN(S(=O)(=O)N2CCC3(CC2)OCCO3)CC1)N1CCOCC1
measurement.units: %
data.value: 94.1
--
compound: COc1ccccc1C1CC(c2ccc(C)cc2)Nc2ncnn21 (configuration not stated)
measurement.units: %
data.value: 102
--
compound: COC(=O)c1nn(-c2ccc(-c3ccccc3)cc2)cc1O
measurement.units: %
data.value: 89.2
--
compound: O=C1CCn2nc(-c3ccc(Cl)cc3)cc2N1
measurement.units: %
data.value: 97.8
--
compound: CCOc1ccccc1N(CC(=O)NC1CCCC1)C(=O)CCCC(=O)Nc1ccccn1
measurement.units: %
data.value: 112
--
compound: CCc1ccc(NC(=O)C2CC(=O)N(C(C)C)C2)cc1 (configuration not stated)
measurement.units: %
data.value: 90.8
--
compound: CCOC(=O)c1[nH]c2ccc(Br)cc2c1NC(=O)CNC
measurement.units: %
data.value: 87.3
--
compound: O=S(c1ccsc1)c1ccsc1
measurement.units: %
data.value: 88.7
--
compound: O=C(O)C1CCCCC1C(=O)NCCc1ccccc1 (configuration not stated)
measurement.units: %
data.value: 99.2
--
compound: Cc1cc2ncn(N)c2cc1C
measurement.units: %
data.value: 98.8
--
compound: Cc1cc(-n2c(C)cc(C(=O)CSc3nc4ccccc4c(=O)n3Cc3ccco3)c2C)no1
measurement.units: %
data.value: 93.8
--
compound: CCCS(=O)(=O)NCCc1cc2cc(C)c(C)cc2[nH]c1=O
measurement.units: %
data.value: 96.3
--
compound: COc1ccccc1OCCSc1nc2ccccc2c(=O)[nH]1
measurement.units: %
data.value: 95.2
--
compound: Cn1nnnc1SCC(=O)NC1CCCCC1
measurement.units: %
data.value: 96.1
--
compound: CCOC(=O)C(C)On1c(SC(C)C(=O)OCC)nc2ccccc2c1=O (configuration not stated)
measurement.units: %
data.value: 82.1
--
compound: C=CCn1c2ccccc2c2nnc(SCC(=O)NC(C(=O)OC)C(C)C)nc21 (configuration not stated)
measurement.units: %
data.value: 76.8
--
compound: CCSc1nnc(NC(=O)C(CC)(C(F)(F)F)C(F)(F)F)s1
measurement.units: %
data.value: 74
--
compound: O=C(c1ccc(Cl)c(Cl)c1)N1CCOCC1
measurement.units: %
data.value: 92.3
--
compound: COc1ccccc1N1CC(C(=O)Nc2cccc(C(=O)O)c2)CC1=O (configuration not stated)
measurement.units: %
data.value: 94.1
--
compound: Cc1cc(C)n(C2=NS(=O)(=O)c3ccccc32)n1
measurement.units: %
data.value: 101
--
compound: CC(C)C(c1nnnn1CC1CCCO1)N1CCN(Cc2ccc3c(c2)OCO3)CC1 (configuration not stated)
measurement.units: %
data.value: 95.3
--
compound: CCOc1ccccc1NC(=O)C1CCCN(C(=O)NCc2ccccc2)C1 (configuration not stated)
measurement.units: %
data.value: 100
--
compound: COc1cc2c(cc1OC)-c1cc(OCc3cccnc3)nc(=O)n1CC2
measurement.units: %
data.value: 92.9
--
compound: O=C(Cn1nnc(-c2ccc(CN3CCOCC3)cc2)n1)NC1CCCCC1
measurement.units: %
data.value: 101
--
compound: COC(=O)c1cc(NC(=O)C2COc3ccccc3O2)cc(C(=O)OC)c1 (configuration not stated)
measurement.units: %
data.value: 84.2
--
compound: Cc1c(NS(=O)(=O)c2ccc3c(c2)c(=O)n(C)c(=O)n3C)c(=O)n(-c2ccccc2)n1C
measurement.units: %
data.value: 95.7
--
compound: Cc1ccc(S(=O)(=O)N[C@@H](C)C(=O)N2CCC(C(=O)N3CCC[C@H]3C(=O)O)CC2)cc1
measurement.units: %
data.value: 102
--
compound: CCCCc1cc(=O)oc2cc(C)cc(OC(C)C(=O)O)c12 (configuration not stated)
measurement.units: %
data.value: 104
--
compound: COc1ccc(-n2c(SCCC(=O)O)nnc2-c2ccncc2)cc1
measurement.units: %
data.value: 96.7
--
compound: O=C(CSc1nnc(CNC(=O)c2cccs2)o1)NC1CCCC1
measurement.units: %
data.value: 82.4
--
compound: Cc1cc(C(=O)OCCO)c(C#N)c(N)n1
measurement.units: %
data.value: 92.1
--
compound: Cc1c(Cl)cnc(NC(=O)COC(=O)C(NC(=O)c2ccco2)C(C)C)c1Cl (configuration not stated)
measurement.units: %
data.value: 83.2
--
compound: Cc1nc2ccc(N3C(=O)CCC3=O)cc2[nH]1
measurement.units: %
data.value: 103
--
compound: COc1ccccc1NC(=O)CSc1nnnn1-c1ccc2c(c1)OCO2
measurement.units: %
data.value: 90.9
--
compound: O=C(Nc1ccc2c(c1)OCO2)c1cncc(Br)c1
measurement.units: %
data.value: 92.6
--
compound: COc1cccc(NC(=O)CSc2nnc(-c3cccs3)n2C)c1
measurement.units: %
data.value: 97.5
--
compound: C=CCn1c(-c2ccccc2)c[nH]c1=S
measurement.units: %
data.value: 99.9
--
compound: O=C(CCn1c(=S)[nH]c2cc3c(cc2c1=O)OCO3)N1CCN(C2CCCCC2)CC1
measurement.units: %
data.value: 90
--
compound: COc1ccc(C)cc1NCc1cccc(OC)c1OC
measurement.units: %
data.value: 102
--
compound: CCCCn1c(SCC(=O)Nc2cc(C)on2)nnc1-c1cccnc1
measurement.units: %
data.value: 104
--
compound: CCC(C)NC(=O)c1ccccc1NC(=O)C(C)N(c1ccccc1)S(C)(=O)=O (configuration not stated)
measurement.units: %
data.value: 94.5
